# Test system: THRa:RXRa (NR concentration 90 nM, RXRa partner concentration 90 nM)
# runDescription: PBM binding z-score (relative to random genomic background probes); higher = stronger binding; sequences stand for … in GC…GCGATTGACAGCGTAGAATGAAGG
Below, each of the sequences is paired with its reported PBM binding z-score value.
// print number alone

Use these answered entries as a reference point.
[
  {
    "entrySequence": "AGTCAAAGTTCATCTAGGTAACCTAAGATATGCT",
    "testValue": 3.21
  },
  {
    "entrySequence": "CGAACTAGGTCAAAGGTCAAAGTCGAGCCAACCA",
    "testValue": 4.58
  },
  {
    "entrySequence": "AGAACGAGGGCAATGAGTGGATAGCACGGGTGGC",
    "testValue": 0.576
  },
  {
    "entrySequence": "CCGACTGGGCCAGAAAGGTTACCATACCATCCGG",
    "testValue": 1.04
  },
  {
    "entrySequence": "CCTCGGAGCACAGAAGGTCAGAGCTGTCCGCTTT",
    "testValue": 3.13
  }
]

Query (sequence): "TAGCCTAGGTCATTGGGCCATTATAGTACGCATC" ; field requested: PBM binding z-score
3.07

Query (sequence): "TAGCCTAGGTCATGCAGGCCAGTATAGTGTCGGC" ; field requested: PBM binding z-score
3

----------
Below, each of the sequences is paired with its reported PBM binding z-score value.
# System: RARg homodimer (NR concentration 270 nM)
# runDescription: PBM binding z-score (relative to random genomic background probes); higher = stronger binding; sequences stand for … in GC…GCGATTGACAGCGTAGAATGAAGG
// print number alone

[
  {
    "entrySequence": "AGAATGAGGTTACCAAAGATCAGAGAAACGCTTG",
    "PBM binding z-score": 1.6
  },
  {
    "entrySequence": "AGAACGAGGGCAATGAGTTGATGGCACGGGTGGC",
    "PBM binding z-score": 1.54
  },
  {
    "entrySequence": "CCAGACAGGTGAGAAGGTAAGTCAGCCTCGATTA",
    "PBM binding z-score": 0.357
  },
  {
    "entrySequence": "GATACAGGGTCAAGGCCAGACTACGCGTATTGAT",
    "PBM binding z-score": 5.17
  },
  {
    "entrySequence": "TAGCCTAGGTCGTGCGGGCCAGTATAGTGTCGGC",
    "PBM binding z-score": 0.719
  }
]

Request - read-out PBM binding z-score | tested on RARg homodimer (NR concentration 270 nM) | sequence "CGTCCAAGGTCCGCAGGTCAGTGAAAGCGACGTG"
1.49

Request - read-out PBM binding z-score | tested on RARg homodimer (NR concentration 270 nM) | sequence "GCTGCTAGGCCAGGTTGGTCAGCTAACGGGTACG"
-0.124

----------
Below, each of the sequences is paired with its reported PBM binding z-score value.
# Tested on: PPARg:RXRa IVT, anti-PPARg (NR concentration 270 nM, RXRa partner concentration 90 nM)
# runDescription: PBM binding z-score (relative to random genomic background probes); higher = stronger binding; sequences stand for … in GC…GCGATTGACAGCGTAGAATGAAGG

Query (sequence): "TTACCAAGGTGAGCTCAGGTCGTTGATCCAACTC" ; field requested: PBM binding z-score
1.8

These entries and their values trace back to the supplement of paper PMC6555819.
